The measured values listed here are drawn from the METLIN SMRT retention time set (Domingo-Almenara et al. 2019).

test: gradient 5% acetonitrile 3 min, to 50% in 2 min, to 85% in 15 min, held 3 min, 100 µL/min; settings: column: Zorbax Extend-C18 2.1 x 50 mm; eluents: water / acetonitrile, 0.1% formic acid
measured_parameter: RP-LC retention time (s)

{"compound": "CCc1ccc(-c2cc(C(=O)N3CCN(c4ncccn4)CC3)c3ccccc3n2)s1", "RP-LC retention time, s": 1090}
{"compound": "COc1ccc(CCNC(=O)CN2C(=O)CSc3cccn3-c3ccccc32)cc1OC", "RP-LC retention time, s": 831}
{"compound": "CCn1nc(C)c2c(-c3ccccc3)cc(OC(C)C(=O)Nc3ccc(C(C)=O)cc3)nc21 (centres undefined)", "RP-LC retention time, s": 1030}
{"compound": "CCn1c(=O)sc2cc(S(=O)(=O)N3CCC(C(=O)Nc4ccc(Cl)cc4C)CC3)ccc21", "RP-LC retention time, s": 980}
{"compound": "COc1cn(CC(=O)Nc2ccc(C)c(Cl)c2)c(CN2CCN(C(C)=O)CC2)cc1=O", "RP-LC retention time, s": 595}
{"compound": "Cc1cc(C)cc(OCCNC(=O)Nc2cc(F)ccc2F)c1", "RP-LC retention time, s": 992}
{"compound": "CCC(C)NC(=O)N1CCc2c(c(-c3nc(-c4cccc(F)c4)no3)nn2C)C1 (centres undefined)", "RP-LC retention time, s": 904}

I: CCN1C(=O)c2ccccc2Oc2ccc(C(=O)NCc3ccccc3)cc21
II: O=C(CCn1cnnn1)N1CCC2(CC1)CC(CC(=O)N1CCOCC1)CCO2 (centres undefined)
Query: Which value of RP-LC retention time is greater, the one for I or the one for II ? Pick one; state its label.
Response: I
